- subjectOfTest: CFTR (Homo sapiens)
- Sequence (P13569 with tags, fused parts or gaps DEL508-508): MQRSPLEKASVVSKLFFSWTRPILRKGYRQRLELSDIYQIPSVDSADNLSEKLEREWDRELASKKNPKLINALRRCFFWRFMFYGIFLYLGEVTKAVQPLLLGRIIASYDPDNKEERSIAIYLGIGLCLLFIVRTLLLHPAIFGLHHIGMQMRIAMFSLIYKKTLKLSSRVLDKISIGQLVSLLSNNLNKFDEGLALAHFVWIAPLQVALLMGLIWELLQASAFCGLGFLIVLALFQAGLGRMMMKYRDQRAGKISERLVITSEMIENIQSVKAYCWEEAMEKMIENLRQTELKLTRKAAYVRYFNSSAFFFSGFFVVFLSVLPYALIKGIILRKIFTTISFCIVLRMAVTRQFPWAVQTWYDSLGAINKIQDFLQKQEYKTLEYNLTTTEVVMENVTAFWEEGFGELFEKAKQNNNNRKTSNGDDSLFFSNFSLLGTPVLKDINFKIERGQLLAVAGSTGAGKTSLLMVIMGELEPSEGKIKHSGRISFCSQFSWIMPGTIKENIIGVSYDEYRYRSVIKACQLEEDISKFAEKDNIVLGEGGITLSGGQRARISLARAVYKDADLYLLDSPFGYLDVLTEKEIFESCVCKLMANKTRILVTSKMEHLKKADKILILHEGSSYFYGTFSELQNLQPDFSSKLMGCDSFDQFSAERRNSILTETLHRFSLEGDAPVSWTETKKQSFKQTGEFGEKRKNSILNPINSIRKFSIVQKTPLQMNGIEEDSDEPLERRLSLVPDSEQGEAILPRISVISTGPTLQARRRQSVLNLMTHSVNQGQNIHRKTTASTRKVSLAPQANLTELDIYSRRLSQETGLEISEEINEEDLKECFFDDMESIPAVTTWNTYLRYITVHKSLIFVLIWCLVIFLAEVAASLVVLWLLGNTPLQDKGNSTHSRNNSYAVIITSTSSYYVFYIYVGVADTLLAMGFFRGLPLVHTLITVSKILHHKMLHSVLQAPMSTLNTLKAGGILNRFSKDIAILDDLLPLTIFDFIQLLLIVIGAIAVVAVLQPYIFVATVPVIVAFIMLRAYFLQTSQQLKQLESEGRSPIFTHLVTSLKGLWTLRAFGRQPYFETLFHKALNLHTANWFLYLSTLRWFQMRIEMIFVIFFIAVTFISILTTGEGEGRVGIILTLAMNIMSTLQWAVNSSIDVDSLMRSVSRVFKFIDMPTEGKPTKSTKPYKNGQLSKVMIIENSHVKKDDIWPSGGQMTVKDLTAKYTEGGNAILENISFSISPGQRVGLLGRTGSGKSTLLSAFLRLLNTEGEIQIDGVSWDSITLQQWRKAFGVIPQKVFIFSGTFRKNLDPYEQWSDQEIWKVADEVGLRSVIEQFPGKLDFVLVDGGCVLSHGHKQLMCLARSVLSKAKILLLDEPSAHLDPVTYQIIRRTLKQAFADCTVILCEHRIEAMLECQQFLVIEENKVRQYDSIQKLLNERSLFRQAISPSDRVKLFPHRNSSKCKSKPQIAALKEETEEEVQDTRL
- assayProtocol: Membrane Potential Dye, Enteroid Assay A
- Format: cell-based
- runConditions: Enteroid Assay A
measure: Ent. A Max Activity

- structure: "Cc1cccc(C)c1-c1cc2nc(n1)NS(=O)(=O)c1cccc(c1)C(=O)NC[C@@H](C)O2"
  measure: "Ent. A Max Activity"
  measurement: "+++ (+++ is >600%)"
- structure: "Cc1cccc(C)c1-c1cc2nc(n1)NS(=O)(=O)c1cccc(c1)C(=O)N[C@H](Cc1ccccc1)CO2"
  measure: "Ent. A Max Activity"
  measurement: "+++ (+++ is >600%)"
- structure: "Cc1cccc(C)c1-c1cc2nc(n1)NS(=O)(=O)c1cccc(c1)C(=O)NCC1(CCN(C(=O)CC(C)(C)C)CC1)CO2"
  measure: "Ent. A Max Activity"
  measurement: "++ (++ is 30-60%)"
- structure: "COc1ccc2c(c1)c(C(=O)N1CCC3(CC1)CNC(=O)c1cccc(c1)S(=O)(=O)Nc1nc(cc(-c4c(C)cccc4C)n1)OC3)c(C)n2C1CC1"
  measure: "Ent. A Max Activity"
  measurement: "++ (++ is 30-60%)"
- structure: "COc1ccccc1-c1cc2nc(n1)NS(=O)(=O)c1cccc(c1)C(=O)N[C@H](CC(C)C)CO2"
  measure: "Ent. A Max Activity"
  measurement: "++ (++ is 30-60%)"
- structure: "Cc1ccccc1-c1cc2nc(n1)NS(=O)(=O)c1cccc(c1)C(=O)N[C@H](CC1CCCCC1)CO2"
  measure: "Ent. A Max Activity"
  measurement: "+++ (+++ is >600%)"
- structure: "Cc1cccc(C)c1-c1cc2nc(n1)NS(=O)(=O)c1cccc(c1)C(=O)NCC1(CCN(C(=O)c3cc4ccc(OC(F)(F)F)cc4[nH]3)CC1)CO2"
  measure: "Ent. A Max Activity"
  measurement: "++ (++ is 30-60%)"
